test: Assay 1: half-life and plasma clearance upon intravenous administration to beagle dogs; type: in vivo; details: dog, iv dose up to 0.3 mg/kg, plasma, geometric mean, Phoenix PK/PD (Example 1: internal tool)
assay.readout: clearance (mL/min/kg)

O=C(N[C@H]1CCOc2ccccc21)c1cnc2c(-c3cc(F)cc(F)c3F)cccc2c1C1COC1    5
O=C(N[C@H]1CCOc2ccccc21)c1cnc2c(-c3cc(F)cc(F)c3F)c(F)ccc2c1[C@H]1C[C@H](F)C1    1.17

I. O=C(N[C@H]1CCOc2ccccc21)c1cnc2c(-c3cc(Cl)cc(Cl)c3)c(F)ccc2c1N1CC(F)C1
II. O=C(N[C@H]1CCOc2ccccc21)c1cnc2c(-c3cc(F)cc(F)c3F)c(F)ccc2c1C1CCOCC1
Rank I against II by their clearance values and give the higher one. Kindly state the label of the option you pick. II

* * *

Test: log P by HPLC on reversed phase columns (LC-MS Method 0)
Format: physicochemical
Details: 0.1% formic acid/acetonitrile; Method 0, acidic range, 0.1% formic acid in water and acetonitrile; read-out: log P (HCOOH)
Procedure: […] Calibration was done with straight-chain alkan-2-ones (with 3 to 16 carbon atoms) with known log P values (measurement of log P values using retention times with linear interpolation between successive alkanones). Lambda-max-values were determined using UV-spectra from 200 nm to 400 nm and the peak values of the chromatographic signals.
assay.readout: chromatographic logP
# respond with the number and nothing more

So what does the record say about chromatographic logP for O=C(N[C@H]1CCOc2ccccc21)c1cnc2c(-c3cc(F)cc(F)c3F)c(F)ccc2c1N1CC(F)C1 ? 1.93

* * *

test: Assay 1: half-life and plasma clearance upon intravenous administration to beagle dogs; type: in vivo; settings: dog, iv dose up to 0.3 mg/kg, plasma, geometric mean, Phoenix PK/PD (Example 1: internal tool), read-out: Half-life (h/Form) iv, geometric mean (converted)
assay.readout: half-life (h)

O=C(N[C@H]1CCOc2ccccc21)c1cnc2c(-c3cc(Cl)cc(Cl)c3)c(F)ccc2c1N1CC(F)C1 [Example 5]    160

1. Cc1nn2c(C(C)C)c(C(=O)N[C@H]3CCOc4ccccc43)cnc2c1-c1ccc(F)c(F)c1 [Example 3]
2. O=C(N[C@H]1CCOc2ccccc21)c1cnc2c(-c3cc(F)cc(F)c3F)c(F)ccc2c1N1CC(F)C1 [Example 7]
Min half-life? 1 | 2 Let me know the label of the one you choose. 1

P. Cc1nn2c(C(C)C)c(C(=O)N[C@H]3CCOc4ccccc43)cnc2c1-c1c(F)cccc1Cl [Example 10]
Q. O=C(N[C@H]1CCOc2ccccc21)c1cnc2c(-c3cc(F)cc(F)c3F)c(F)ccc2c1C1CCOCC1 [Example 14]
Of the pair P and Q , name the member with the lesser recorded half-life. Selection: enter the item's label. P

P. O=C(N[C@H]1CCOc2ccccc21)c1cnc2c(-c3cc(F)cc(F)c3F)c(F)ccc2c1C1CS(=O)(=O)C1 [Example 8]
Q. Cc1nn2c(C(C)C)c(C(=O)N[C@H]3CCc4ccccc43)cnc2c1-c1cc(Cl)c(F)c(Cl)c1 [Example 2]
Hi! Which is lower in terms of half-life, the first one P or the second one Q ? # answer = label of selected item Q
(Q: 19 h, P: 43.6 h)

* * *

test: Assay 1: half-life and plasma clearance upon intravenous administration to beagle dogs; assay type: in vivo; settings: dog, iv dose up to 0.3 mg/kg, plasma, geometric mean, Phoenix PK/PD (Example 1: internal tool), read-out: Half-life (h/Form) iv, geometric mean (converted)
assay.readout: half-life (h)

A selection of reference data follows.
CCc1c(C(=O)N[C@H]2CCOc3ccccc32)cnc2c(-c3cc(F)cc(F)c3F)c(F)ccc12 [Example 1]    52
O=C(N[C@H]1CCOc2ccccc21)c1cnc2c(-c3cc(F)cc(F)c3F)c(F)ccc2c1[C@H]1C[C@H](F)C1 [Example 9]    190

A. O=C(N[C@H]1CCOc2ccccc21)c1cnc2c(-c3cc(F)cc(F)c3F)cccc2c1C1CCOCC1 [Example 12]
B. O=C(N[C@H]1CCOc2ccccc21)c1cnc2c(-c3cc(F)cc(F)c3F)cccc2c1C1COC1 [Example 11]
Of A and B , whose reported half-life is the larger number? In your reply, give the label of the chosen option. B
(B: 47.8 h, A: 21.4 h)
